src = patent US11702404B2

# Experimental Target: UniProt:P43220
# Sequence (P43220 24-463): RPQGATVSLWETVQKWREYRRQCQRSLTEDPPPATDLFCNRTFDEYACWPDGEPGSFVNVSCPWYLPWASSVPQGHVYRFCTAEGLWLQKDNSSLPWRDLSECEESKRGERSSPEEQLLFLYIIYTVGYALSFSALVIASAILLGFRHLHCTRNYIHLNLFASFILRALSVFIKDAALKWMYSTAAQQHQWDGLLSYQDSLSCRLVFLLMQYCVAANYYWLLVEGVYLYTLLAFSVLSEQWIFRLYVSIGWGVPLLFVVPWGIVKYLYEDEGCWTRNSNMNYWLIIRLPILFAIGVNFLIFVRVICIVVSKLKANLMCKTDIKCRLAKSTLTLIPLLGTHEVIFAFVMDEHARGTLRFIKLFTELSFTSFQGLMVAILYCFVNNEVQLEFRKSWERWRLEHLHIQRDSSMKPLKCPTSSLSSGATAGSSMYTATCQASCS
# Assay Info: GLP-1R activation: cAMP increase in CHO cells stably expressing GLP-1R
# Assay type: cell-based
# Condition Set: cAMP increase, CHO cells stably expressing GLP-1R, 10 point dose response, 30 minutes incubation; read-out: EC50
Exercise: state measured log10 of EC50 for each of the molecules provided.
# values: log10(EC50), units nM

The molecule listed as `N#CCC1(Cn2c(Cc3c(F)cc(-c4ccnc(OCc5ccc(C#N)cc5F)n4)cc3F)nc3ccc(C(=O)O)cc32)CC1` has a reported log10 of EC50 of 0.45

The molecule listed as `N#Cc1ccc(COc2cccc(-c3cc(F)c(Cc4nc5ccc(C(=O)O)cc5n4CC45CC(CCO4)C5)cc3F)n2)c(F)c1` has a reported log10 of EC50 of 0.61

The molecule listed as `N#Cc1ccc(COc2cccc(-c3cc(F)c(Cc4nc5ccc(C(=O)O)cc5n4CCOC4CC4)cc3F)n2)c(F)c1` has a reported log10 of EC50 of 0.10

The molecule listed as `N#Cc1ccc(COc2cccc(-c3ccc(Cc4nc5ccc(C(=O)O)cc5n4CC4(CO)COC4)c(F)c3)n2)c(F)c1` has a reported log10 of EC50 of 0.83

The molecule listed as `CCc1cnccc1Cn1c(Cc2ccc(-c3cccc(OCc4ccc(C#N)cc4F)n3)c(F)c2)nc2ccc(C(=O)O)cc21` has a reported log10 of EC50 of 1.70

The molecule listed as `N#Cc1ccc(COc2cccc(-c3ccc(Cc4nc5ccc(C(=O)O)cc5n4CC4(CF)CC4)c(F)c3)n2)c(F)c1` has a reported log10 of EC50 of -0.24

The molecule listed as `COCCn1c(Cc2ccc(-c3cccc(OCc4ccc(C#N)cc4F)c3)cc2F)nc2ccc(C(=O)O)cc21` has a reported log10 of EC50 of 1.75

The molecule listed as `COCCn1c(Cc2ccc(-c3cccc(OCc4ccc(C(F)(F)F)cc4F)n3)cc2F)nc2ccc(C(=O)O)cc21` has a reported log10 of EC50 of 0.82

The molecule listed as `O=C(O)c1ccc2nc(Cc3cc(F)c(-c4cccc(OCc5ccc(C(F)(F)F)cc5)n4)cc3F)n(C[C@@H]3CCO3)c2c1` has a reported log10 of EC50 of -1.22

The molecule listed as `CCOc1cc(C#N)ccc1COc1cccc(-c2ccc(Cc3nc4ccc(C(=O)O)cc4n3CCOC)c(F)c2)n1` has a reported log10 of EC50 of 1.08

The molecule listed as `N#CCC1(Cn2c(Cc3cc(F)c(-c4nc(OCc5ccc(C#N)cc5F)ncc4F)cc3F)nc3ccc(C(=O)O)nc32)CC1` has a reported log10 of EC50 of -0.15

The molecule listed as COCCn1c([C@@H](C)c2ccc(-c3cccc(OCc4ccc(C#N)cc4F)n3)cc2)nc2ccc(C(=O)O)cc21 (racemic) has a reported log10 of EC50 of 3.04

The molecule listed as `COCCn1c(Cc2cc(F)c(-c3cccc(OCc4cccc(-c5ncccn5)c4)n3)cc2F)nc2ccc(C(=O)O)cc21` has a reported log10 of EC50 of 0.35

The molecule listed as `N#Cc1ccc(COc2cccc(-c3cc(F)c(Cc4nc5ccc(C(=O)O)cc5n4[C@H]4COC[C@H]4O)cc3F)n2)c(F)c1` has a reported log10 of EC50 of -0.27
